target: human COX-2 (Homo sapiens, UniProt P35354); construct: expressed in transfected cells; host or cells: COS cells (stably transfected); assay: Inhibition of PGE2 release in COS cells stably transfected with human COX-2; type: cell-based; details: COS cells transfected with human COX-2; 1 hour preincubation, 30 μM arachidonic acid for 15 minutes, PGE2 by enzyme immunoassay
Sequence (P35354 18-604): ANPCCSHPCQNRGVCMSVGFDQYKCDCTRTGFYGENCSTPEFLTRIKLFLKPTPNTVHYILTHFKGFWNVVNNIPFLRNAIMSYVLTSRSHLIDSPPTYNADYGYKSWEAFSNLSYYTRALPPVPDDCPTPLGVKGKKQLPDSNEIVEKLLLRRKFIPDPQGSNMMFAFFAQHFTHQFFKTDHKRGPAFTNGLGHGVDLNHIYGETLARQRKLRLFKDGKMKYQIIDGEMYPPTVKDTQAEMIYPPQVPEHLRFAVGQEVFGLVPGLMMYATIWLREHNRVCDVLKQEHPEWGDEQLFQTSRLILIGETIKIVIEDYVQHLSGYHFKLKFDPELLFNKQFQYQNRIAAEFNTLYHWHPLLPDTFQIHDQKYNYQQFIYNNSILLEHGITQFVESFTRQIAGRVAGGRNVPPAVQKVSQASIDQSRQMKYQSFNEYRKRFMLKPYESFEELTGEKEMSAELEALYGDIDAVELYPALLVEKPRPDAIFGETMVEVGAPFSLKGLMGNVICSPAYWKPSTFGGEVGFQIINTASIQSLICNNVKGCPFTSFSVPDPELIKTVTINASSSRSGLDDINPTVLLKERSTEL
Assignment: determine reported IC50 for the given compounds.
Answer with the number, then the unit.

Prompt: Recorded IC50 for `CS(=O)(=O)c1ccc(-c2c(-c3ccc(F)cc3)nn3cc(C#N)ccc23)cc1` , please?
Completion: 12 nM

Prompt: Try this compound too: `CCOc1ccc(-c2nn3cc(Cl)ccc3c2-c2ccc(S(N)(=O)=O)cc2)cc1`
Completion: 12 nM

Prompt: Then this compound: `N#Cc1ccc2c(-c3ccc(S(N)(=O)=O)cc3)c(-c3ccc(F)cc3)nn2c1`
Completion: 21 nM

Prompt: // same read-out, input: `CS(=O)(=O)c1ccc(-c2c(-c3ccc(F)cc3)nn3cc(Br)ccc23)cc1`
Completion: 5 nM

Prompt: Follow-up entry: `NS(=O)(=O)c1ccc(-c2c(-c3cccc(F)c3)nn3cc(Cl)ccc23)cc1`
Completion: 1 nM

Prompt: What do we get for `NS(=O)(=O)c1ccc(-c2c(-c3ccccc3)nn3cc(Cl)ccc23)cc1` ?
Completion: 5 nM

Prompt: Same thing, different compound: `NS(=O)(=O)c1ccc(-c2c(-c3ccc(F)cc3)nn3cc(Br)ccc23)cc1`
Completion: 1 nM

Prompt: Also `NS(=O)(=O)c1ccc(-c2c(-c3ccc(F)cc3)nn3cc(Cl)ccc23)cc1` , if possible.
Completion: 21 nM

Reference source: patent US6498166B1
